Target entity: T1, hLRRC33-proTGFβ1 (human, UniProt Q86YC3 19-650; P01137 30-390, limits assumed)
T1 construct: LLC as m1; Same id used for the cell-surface complex in reporter assays; also called human LRRC33-proTGFβ1 complex; LRRC33-ProTGFb1
T1 sequence (Q86YC3 19-650 limits assumed, chain 1 of 2): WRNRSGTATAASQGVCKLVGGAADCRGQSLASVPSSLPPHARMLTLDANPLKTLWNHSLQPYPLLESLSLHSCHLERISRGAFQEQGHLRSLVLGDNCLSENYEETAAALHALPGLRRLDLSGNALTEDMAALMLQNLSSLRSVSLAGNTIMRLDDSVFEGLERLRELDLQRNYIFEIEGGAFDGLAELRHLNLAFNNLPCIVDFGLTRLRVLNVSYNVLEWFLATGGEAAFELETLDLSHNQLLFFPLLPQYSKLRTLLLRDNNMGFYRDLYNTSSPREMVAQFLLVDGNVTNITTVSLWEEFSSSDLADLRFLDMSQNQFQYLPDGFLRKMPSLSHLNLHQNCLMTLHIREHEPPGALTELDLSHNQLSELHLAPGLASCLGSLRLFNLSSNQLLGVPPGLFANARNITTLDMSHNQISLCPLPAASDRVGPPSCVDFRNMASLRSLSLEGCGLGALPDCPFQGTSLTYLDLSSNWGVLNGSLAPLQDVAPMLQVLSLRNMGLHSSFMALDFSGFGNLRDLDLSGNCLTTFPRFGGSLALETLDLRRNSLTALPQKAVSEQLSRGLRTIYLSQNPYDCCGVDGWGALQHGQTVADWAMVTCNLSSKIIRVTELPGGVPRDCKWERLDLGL
T1 sequence (P01137 30-390 limits assumed, chain 2 of 2): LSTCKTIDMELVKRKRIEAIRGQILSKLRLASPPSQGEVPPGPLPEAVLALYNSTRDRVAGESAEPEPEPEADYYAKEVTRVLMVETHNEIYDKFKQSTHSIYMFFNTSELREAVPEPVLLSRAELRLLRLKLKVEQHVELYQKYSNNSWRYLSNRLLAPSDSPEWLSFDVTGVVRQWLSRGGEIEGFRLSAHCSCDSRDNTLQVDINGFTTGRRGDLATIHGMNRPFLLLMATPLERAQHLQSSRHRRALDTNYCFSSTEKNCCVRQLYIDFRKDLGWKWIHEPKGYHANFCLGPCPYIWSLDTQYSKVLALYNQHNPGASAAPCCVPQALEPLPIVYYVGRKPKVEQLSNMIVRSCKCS
Protocol details: MSD-SET, hIgG4
Procedure: For solution equilibrium titration-based binding assays, protein complexes that comprise one of the presenting molecules such as those shown above may be employed as antigen (presenting molecule-TGFβ1 complex, or an LLC). […] Antigen-antibody reaction mixtures are incubated to allow an equilibrium to be reached; the amount of the antigen-antibody complex present in the assay reactions can be measured by suitable means well known in the art. […]
The following binders are shown together with reported pKd values.
In simple prose, pKd is minus the logarithm base ten of a concentration in moles per litre.

Worked cases, pKd given:
>  <Binder>
Ab32 (antibody, V domains shown) VH: EVQLVESGGGLVQPGGSLRLSCAASGFTFSSFSMNWVRQAPGKGLEWVSYISPSADTIYYADSVKGRFTISRDNAKNTLYLQMNSLRAEDTAVYYCARGVWDMGDMLDPWGQGTLVTVSS VL: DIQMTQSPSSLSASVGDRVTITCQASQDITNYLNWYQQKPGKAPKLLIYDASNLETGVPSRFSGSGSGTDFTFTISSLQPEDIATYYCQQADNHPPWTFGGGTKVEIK

>  <pKd>
10.06

$$$$
>  <Binder>
Ab4 (antibody, V domains shown) VH: EVQLVESGGGLVQPGGSLRLSCAASGFTFSSYSMNWVRQAPGKGLEWVSYISSSSSTIYYADSVKGRFTISRDNAKNSLYLQMNSLRAEDTAVYYCARGVLDYGDMLDPWGQGTLVTVSS VL: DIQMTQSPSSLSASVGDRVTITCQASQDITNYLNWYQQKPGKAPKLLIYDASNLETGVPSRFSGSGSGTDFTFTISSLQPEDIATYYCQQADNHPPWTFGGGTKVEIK

>  <pKd>
8.68

$$$$
>  <Binder>
Ab22 (antibody, V domains shown) VH: EVQLVESGGGLVQPGGSLRLSCAASGFTFGSFSMNWVRQAPGKGLEWVSYIHSDASTIYYADSVKGRFTISRDNAKNSLYLQMNSLRAEDTAVYYCARGVLDYGDMLDPWGQGTLVTVSS VL: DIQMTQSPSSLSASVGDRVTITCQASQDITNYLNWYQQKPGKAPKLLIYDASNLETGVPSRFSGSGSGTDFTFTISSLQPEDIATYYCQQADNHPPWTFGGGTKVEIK

>  <pKd>
9.70

$$$$
>  <Binder>
Ab24 (antibody, V domains shown) VH: EVQLVESGGGLVQPGRSLRLSCAASGFTFSSFAMYWVRQAPGKGLEWVSYISPDASTIYYADSVKGRFTISRDNAKNSLYLQMNSLRAEDTAVYYCARGVLDYGDMLDPWGQGTLVTVSS VL: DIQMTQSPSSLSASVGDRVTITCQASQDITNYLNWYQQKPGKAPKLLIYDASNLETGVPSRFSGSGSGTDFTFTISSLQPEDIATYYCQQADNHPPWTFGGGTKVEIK

>  <pKd>
9.74

$$$$

# ---- query binder ----
Entry under test: Ab31 (antibody, V domains shown) VH: EVQLVESGGGLVQPGGSLRLSCAASGFTFSSFSMDWVRQAPGKGLEWVSYISPDASTIYYADSVKGRFTISRDNAKNTLYLQMNSLRAEDTAVYYCARAVLDYGDMLDPWGQGTLVTVSS VL: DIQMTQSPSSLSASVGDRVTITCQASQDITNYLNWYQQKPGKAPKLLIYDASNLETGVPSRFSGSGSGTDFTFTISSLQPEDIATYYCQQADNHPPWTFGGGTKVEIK . Its pKd was 10.02
